- measured_on: cIAP2-BIR3 (Homo sapiens, UniProt Q13489)
- Sequence (Q13489 244-349): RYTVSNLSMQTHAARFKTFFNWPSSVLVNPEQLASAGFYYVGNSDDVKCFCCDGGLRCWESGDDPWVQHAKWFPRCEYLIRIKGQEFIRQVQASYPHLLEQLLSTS
- assay_details: DELFIA displacement assay, cIAP2-BIR3
recorded_endpoint: IC50 (µM)

1. CN[C@@H](C)C(=O)N[C@@H](CNC(=O)c1ccc(S(=O)(=O)F)c(OC)c1)C(=O)N1CCC[C@H]1C(=O)N[C@@H]1CCc2c(F)cccc21: 0.492
2. CN[C@@H](C)C(=O)N[C@@H](CNCc1ccc(S(=O)(=O)F)cc1)C(=O)N1CCC[C@H]1C(=O)N[C@@H]1CCc2c(F)cccc21: 0.0585

* * *

- measured_on: cIAP1-BIR3 (Homo sapiens, UniProt Q13490)
- Sequence (Q13490 258-363): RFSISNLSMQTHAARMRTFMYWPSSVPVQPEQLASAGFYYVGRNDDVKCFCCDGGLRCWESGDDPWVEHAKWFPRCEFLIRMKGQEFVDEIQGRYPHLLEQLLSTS
- assay_details: DELFIA displacement assay, cIAP1-BIR3
pIC50: −log10 of the molar value.
Entries and their pIC50
recorded_endpoint: pIC50

1. CN[C@@H](C)C(=O)N[C@@H](CNC(=O)c1ccc(S(=O)(=O)F)c(OC)c1)C(=O)N1CCC[C@H]1C(=O)N[C@@H]1CCc2c(F)cccc21: 6.85
2. CN[C@@H](C)C(=O)N[C@@H](CNCc1ccc(S(=O)(=O)F)cc1)C(=O)N1CCC[C@H]1C(=O)N[C@@H]1CCc2c(F)cccc21: 7.66

* * *

- measured_on: BIR3 domain of XIAP (Homo sapiens, UniProt P98170)
- Sequence (P98170 253-347): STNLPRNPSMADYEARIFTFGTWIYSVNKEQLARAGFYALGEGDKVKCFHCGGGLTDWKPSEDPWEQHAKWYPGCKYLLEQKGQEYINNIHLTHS
- assay_details: DELFIA displacement assay, XIAP-BIR3
recorded_endpoint: IC50 (nM)

1. CN[C@@H](C)C(=O)N[C@@H](CNC(=O)c1ccc(S(=O)(=O)F)c(OC)c1)C(=O)N1CCC[C@H]1C(=O)N[C@@H]1CCc2c(F)cccc21 [compound 13]: 15.6
